Measured INHIBITION by item
System: Plasmodium falciparum
Experiment: Screen against P. falciparum Asexual Blood Stage (ABS), at 5uM
Assay type: functional, Dd2
Conditions: tested at 5 uM
The whole screen tested about 65,000 compounds, of which about 2,100 (3.2%) showed an effect of 50% or more. The median lay at about -52%. The entries come from a sample that favours strong results as a whole.
Include the unit after the number when you answer.

Would you please look over these solved cases?
Compound | Measured Attribute | Observed
CCn1c(CN(C)Cc2cnc(C)s2)nc2c(F)cccc21 | INHIBITION | -30.4%
Oc1ccc(CCC2CCCCN2Cc2noc(C3CC3)n2)cc1 (stereo unspecified) | INHIBITION | -61.9%
Cc1n[nH]cc1CNC(=O)Nc1cccc(OCC(F)(F)F)c1 | INHIBITION | -31.6%
CCOC(=O)[C@]12CCCN(Cc3cccs3)C[C@H]1CN(C(C)C)C2 | INHIBITION | 9.63%
C/C=C(\C)CN1C[C@H](c2cccc(OC)c2)[C@@H](N)C1 | INHIBITION | 65.6%

Inquiry: Form field: reported INHIBITION of `CCOCCN1C[C@H](c2cccc(OC)c2)[C@@H](N)C1`
Reply text: -3.38%

Inquiry: Form field: reported INHIBITION of N#Cc1cccc(C(=O)N2CCCC(O)(CO)CC2)c1 (stereo unspecified)
Reply text: -41.3%

Inquiry: Form field: reported INHIBITION of `Cc1cccc(C(=O)N2CC[C@]3(C[C@H](OCc4ccccn4)CO3)C2)c1`
Reply text: -121%

Inquiry: Form field: reported INHIBITION of c1cncc(COCC2CC[C@H]3[C@H](CCN3CC3CCOCC3)O2)c1 (stereo partly specified)
Reply text: -5.45%

Inquiry: Form field: reported INHIBITION of `CCCN(C(=O)c1cnccn1)c1nc2c(s1)CCc1c-2cnn1C`
Reply text: -28.8%

Inquiry: Form field: reported INHIBITION of `COc1cccc([C@H]2CN(CCCS(=O)(=O)N(C)C)C[C@@H]2N)c1`
Reply text: -56.8%
